# Test system: Mycoplasma hyorhinis
# testProtocol: Antimicrobial test, conventional agar plate dilution method, Mycoplasma hyorhinis
# Format: cell-based
# conditionParameters: Mycoplasma, read-out: Minimum Inhibitory Concentration, Mycoplasma hyorhinis
Note to self: MIC under 0.2 µg/mL means TRUE, ties and anything higher get FALSE.

1. CN1CCN(C(=S)SCCC(=O)c2ccccc2)CC1.Cl; TRUE
2. CC(=O)CCSC(=S)N1CCN(C)CC1; TRUE
3. CC(=O)C(CSC(=S)N(C)C)c1ccccc1 (stereo not drawn); TRUE
4. Cc1cccc(C(=O)CCSC(=S)N(C)C)c1; TRUE

Lookup: Decide: MIC of Cc1cc(CSC(=S)N2CCCC2C(=O)OCc2ccccc2)cc(C)c1O (stereo not drawn) strictly below 0.2 µg/mL?
Found: FALSE

Lookup: Decide: MIC of Cc1cc2c(c(O)c1CSC(=S)N(C)C)C1OCC34CCCC(C)(C)C3CCC(C)(O2)C14 (stereo not drawn) strictly below 0.2 µg/mL?
Found: FALSE

Lookup: Please let me know if CCC(=O)CCSC(=S)N1CCOCC1 shows MIC below 0.2 µg/mL.
Found: TRUE

Lookup: Does CCN(CC)C(=S)SCc1oc(CO)cc(=O)c1O have MIC strictly under 0.2 µg/mL?
Found: TRUE

Lookup: Quick check: MIC of CC(C)(C)c1cc(CSC(=S)N2CCCCC2)cc(C(C)(C)C)c1O under 0.2 µg/mL?
Found: FALSE

Hello, the source for this data is patent US4076814A, in case you need it.
